Tested on: BUB1
details: concentration: 1 μM,replicates: in singlicate; n = 1
Doc: threshold 50% (exclusive). Items with %Inh beneath it return met; others return not met.

See these solved cases before continuing.
molecule: O=C(Nc1n[nH]c2cc(-c3ccco3)ccc12)C1CC1 [SB-737447]
target-or-test-system: BUB1
class-label: met

molecule: Cc1cccc2c(-c3ccncc3)c(-c3ccc(F)cc3)nn12.Cl [GW461487]
target-or-test-system: BUB1
class-label: not met

molecule: COC(=O)c1cccc(NC(=O)NC2CCN(c3ccnc(Nc4cc(OC)c(OC)c(OC)c4)n3)C2)c1 (stereo not drawn) [GSK1379767]
target-or-test-system: BUB1
class-label: met

molecule: COc1ccc(Nc2nccc(N3CCC(NC(=O)c4cccc(C#N)c4)C3)n2)cc1 (stereo not drawn) [GSK1379730]
target-or-test-system: BUB1;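 note: KINOMEscan kinase panel screen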
class-label: not met

# input In plain terms, does O=c1[nH]cc(-c2ccc(O)cc2)c2sc(-c3ccncc3)cc12 [GSK1033723] come in under 50% for %Inh?
# output met

# input In plain terms, does COc1cccc(CNC(=O)NC2CCN(c3ccnc(Nc4cc(OC)c(OC)c(OC)c4)n3)C2)c1 (stereo not drawn) [GSK1379765] come in under 50% for %Inh?
# output not met

# input In plain terms, does C[C@@H]1CNc2c(sc3ccc4nc(-c5ccncc5)ccc4c23)C(=O)N1 come in under 50% for %Inh?
# output not met

# input In plain terms, does CC(=O)c1c(-c2ccncc2)[nH]c(-c2ccncc2)c1C [GW493036] come in under 50% for %Inh?
# output not met

# input In plain terms, does CC(=O)Nc1ccc(-c2cc3ncnc(SCC(=O)O)c3s2)cc1 come in under 50% for %Inh?
# output met
